# TEST SYSTEM: his-labeled human IL-13 (immunogen A) (human) (UniProt P35225)
# PROTOCOL DETAILS: cell-based or functional assay
Entries annotated with measured Periostin (pg/mL), MRCS cells + IL-13 5 ng/mL; antibody at 0.004 nM
PROPERTY MEASURED: Periostin (pg/mL), MRCS cells + IL-13 5 ng/mL; antibody at 0.004 nM

BINDER	RESULT
c28A2E11 (mouse-human chimeric IL-13 antibody) (antibody, V domains shown) VH: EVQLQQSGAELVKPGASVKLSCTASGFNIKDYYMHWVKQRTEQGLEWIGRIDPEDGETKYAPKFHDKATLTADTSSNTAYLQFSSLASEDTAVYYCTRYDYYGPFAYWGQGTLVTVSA VL: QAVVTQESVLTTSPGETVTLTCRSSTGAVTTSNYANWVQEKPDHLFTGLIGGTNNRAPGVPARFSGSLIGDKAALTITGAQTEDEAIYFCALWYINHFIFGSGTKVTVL	5500 pg/mL
c70F10A10 (mouse-human chimeric IL-13 antibody) (antibody, V domains shown) VH: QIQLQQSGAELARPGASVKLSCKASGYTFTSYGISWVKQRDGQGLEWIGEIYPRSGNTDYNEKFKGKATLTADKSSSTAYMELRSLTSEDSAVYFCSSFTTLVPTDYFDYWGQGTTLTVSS VL: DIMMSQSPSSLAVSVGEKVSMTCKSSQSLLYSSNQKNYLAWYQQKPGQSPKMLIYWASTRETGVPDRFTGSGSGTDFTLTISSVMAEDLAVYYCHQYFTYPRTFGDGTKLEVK	5010 pg/mL
c35E2C3 (mouse-human chimeric IL-13 antibody) (antibody, V domains shown) VH: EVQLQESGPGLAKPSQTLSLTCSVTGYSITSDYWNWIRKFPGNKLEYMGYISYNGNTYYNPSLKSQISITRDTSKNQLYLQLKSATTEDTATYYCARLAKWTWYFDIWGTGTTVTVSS VL: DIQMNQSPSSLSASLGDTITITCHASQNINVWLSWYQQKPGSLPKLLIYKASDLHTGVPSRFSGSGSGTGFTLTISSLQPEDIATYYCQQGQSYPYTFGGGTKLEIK	4870 pg/mL
